Recorded values, source patent US5607937A.

Below is a list of entries, each paired with its recorded pKi value.
# STUDY_SYSTEM: factor XIIa (Homo sapiens, UniProt P00748)
# Sequence (P00748 373-615 limits assumed): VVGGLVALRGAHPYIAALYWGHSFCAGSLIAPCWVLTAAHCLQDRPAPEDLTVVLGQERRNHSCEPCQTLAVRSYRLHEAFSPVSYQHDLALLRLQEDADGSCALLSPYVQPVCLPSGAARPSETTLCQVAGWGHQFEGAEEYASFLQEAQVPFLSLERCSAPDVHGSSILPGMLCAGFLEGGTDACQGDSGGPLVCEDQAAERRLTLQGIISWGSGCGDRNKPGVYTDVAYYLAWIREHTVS
# ASSAY_SUMMARY: inhibition of factor XIIa, dissociation constant Ki
pKi: −log10 of the molar value.
EXPERIMENTAL_ENDPOINT: pKi

molecule="COc1cc(C)c(S(=O)(=O)N2CCN(C(=O)C(Cc3cccc(C(=N)N)c3)NS(=O)(=O)c3ccc4ccccc4c3)CC2)c(C)c1C (stereo not drawn)" study_system="factor XIIa (Homo sapiens, UniProt P00748)" readout_relation== experimental_result=5.12
molecule="N=C(N)c1cccc(CC(NS(=O)(=O)c2ccc3ccccc3c2)C(=O)N2CCN(C=O)CC2)c1 (stereo not drawn)" study_system="factor XIIa (Homo sapiens, UniProt P00748)" readout_relation== experimental_result=4.08
molecule="CC(C)C(=O)N1CCN(C(=O)C(Cc2cccc(C(=N)N)c2)NS(=O)(=O)c2ccc3ccccc3c2)CC1 (stereo not drawn)" study_system="factor XIIa (Homo sapiens, UniProt P00748)" readout_relation=< experimental_result=3.00
